# Tested on: Aspergillus fumigatus
# Protocol Notes: checkerboard drug interaction (FICI, MICc);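 note: simplified diagonal checkerboard screen pairing antifungals with FPPS inhibitors against Aspergillus fumigatus, with FICI calculated under the Loewe additivity model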
# Format: cell-based
# Experimental Parameters: Fractional Inhibitory Concentration Index, fluconazole + inhibitor
Task for the reader: assign each of the following molecules its reported FICI (FLC:INH).
Numbers only.

# return FICI (FLC:INH) for each item in the list
1. CCCCCCCCCCCCN1CCC[C@H]1C(=O)N[C@@H](CC(=O)OC)C(=O)OC
2. CCCCCCCCCN1CCC[C@H]1C(=O)N[C@H](CC(=O)OC)C(=O)OC
3. CCCCCCCCCCCCN1CCC[C@H]1C(=O)N[C@H](CC(=O)O)C(=O)O
4. CCCCCCCCCCCN1CCC[C@H]1C(=O)N[C@H](CC(=O)OC)C(=O)OC
5. CCCCCCCCCN1CCC[C@H]1C(=O)N[C@H](CC(=O)O)C(=O)O

Outgoing:
[1.5, 1.5, 2, 1.25, 2]

Would you mind giving FICI (FLC:INH) for every molecule in the list below?
1. CCCCCCCCCCCCN1CCC[C@H]1C(=O)N[C@H](CC(=O)OC)C(=O)OC
2. CCCCCCCCCCCN1CCC[C@H]1C(=O)N[C@@H](CC(=O)OC)C(=O)OC
3. CCCCCCCCCCN1CCC[C@H]1C(=O)N[C@H](CC(=O)OC)C(=O)OC
4. CCCCCCCCCCCN1CCC[C@H]1C(=O)N[C@H](CC(=O)O)C(=O)O

Outgoing:
1: 1.5; 2: 1.25; 3: 2.13; 4: 2

* * *

# Tested on: Cryptococcus neoformans
# Protocol Notes: checkerboard drug interaction (FICI, MICc)
# Assay type: cell-based
# Experimental Parameters: C. neoformans; KET:INH combination; fold decrease of inhibitor MIC
Measurement Name: INH FD (MIC-MICc fold decrease)

Example cases with answers are listed next.
CCCCCCCCCN1CCC[C@H]1C(=O)N[C@H](CC(=O)OC)C(=O)OC 1
CCCCCCCCCCN1CCC[C@H]1C(=O)N[C@@H](CC(=O)OC)C(=O)OC 2
CCCCCCCCCN1CCC[C@H]1C(=O)N[C@@H](CC(=O)OC)C(=O)OC 1
CCCCCCCCCN1CCC[C@H]1C(=O)N[C@@H](CC(=O)O)C(=O)O 2

// next entry
Incoming: Look up Cryptococcus neoformans data: INH FD (MIC-MICc fold decrease) of CCCCCCCCCCCN1CCC[C@H]1C(=O)N[C@@H](CC(=O)OC)C(=O)OC , then report it.
Outgoing: 2

* * *

Assign INH FD (ITR:INH) to each entry below.
# Test system: Aspergillus flavus
# Protocol Notes: checkerboard drug interaction (FICI, MICc)
# Format: cell-based
# Experimental Parameters: A. flavus; MIC-MICc fold decrease of the inhibitor, with itraconazole

Known INH FD (ITR:INH) results, listed for orientation:
Compound	Measurement Name	Recorded Measurement
CCCCCCCCCCCN1CCC[C@H]1C(=O)N[C@@H](CC(=O)OC)C(=O)OC [dmPLA11]	INH FD (ITR:INH)	4
CCCCCCCCCN1CCC[C@H]1C(=O)N[C@@H](CC(=O)OC)C(=O)OC [dmPLA9]	INH FD (ITR:INH)	1
CCCCCCCCCCN1CCC[C@H]1C(=O)N[C@@H](CC(=O)OC)C(=O)OC [dmPLA10]	INH FD (ITR:INH)	32
O=P(O)(O)C(O)(Cn1ccnc1)P(=O)(O)O [ZOL, zoledronate]	INH FD (ITR:INH)	8
CCCCCCCCCN1CCC[C@H]1C(=O)N[C@H](CC(=O)O)C(=O)O [PDA9]	INH FD (ITR:INH)	64
CCCCCCCCCCCCN1CCC[C@H]1C(=O)N[C@H](CC(=O)OC)C(=O)OC [dmPDA12]	INH FD (ITR:INH)	32

I'm hoping you can list INH FD (ITR:INH) for every compound here, please.
1. CCCCCCCCCCCCN1CCC[C@H]1C(=O)N[C@H](CC(=O)O)C(=O)O [PDA12]
2. CCCCCCCCCCCN1CCC[C@H]1C(=O)N[C@H](CC(=O)OC)C(=O)OC [dmPDA11]
3. CCCCCCCCCCCN1CCC[C@H]1C(=O)N[C@@H](CC(=O)O)C(=O)O [PLA11]

Outgoing:
2
128
64

* * *

# System: Trichophyton rubrum
# Protocol Notes: checkerboard drug interaction (FICI, MICc)
# Format: cell-based
# Experimental Parameters: T. rubrum; MIC of the inhibitor in combination with fluconazole
Measurement Name: INH MICc (FLC:INH)
Give bare numbers.

The cases that follow already have their INH MICc (FLC:INH) on record.
Compound	Measurement Name	Recorded Measurement
CCCCCCCCCCCN1CCC[C@H]1C(=O)N[C@@H](CC(=O)OC)C(=O)OC [dmPLA11]	INH MICc (FLC:INH)	32
CCCCCCCCCCCN1CCC[C@H]1C(=O)N[C@@H](CC(=O)O)C(=O)O [PLA11]	INH MICc (FLC:INH)	256
O=P(O)(O)C(O)(Cn1ccnc1)P(=O)(O)O [ZOL, zoledronate]	INH MICc (FLC:INH)	32
CCCCCCCCCCCCN1CCC[C@H]1C(=O)N[C@H](CC(=O)O)C(=O)O [PDA12]	INH MICc (FLC:INH)	256
CCCCCCCCCCCN1CCC[C@H]1C(=O)N[C@H](CC(=O)OC)C(=O)OC [dmPDA11]	INH MICc (FLC:INH)	64

Could you tell me INH MICc (FLC:INH) for each of these compounds? They are listed below.
1. CCCCCCCCCN1CCC[C@H]1C(=O)N[C@H](CC(=O)OC)C(=O)OC [dmPDA9]
2. CCCCCCCCCCCCN1CCC[C@H]1C(=O)N[C@@H](CC(=O)OC)C(=O)OC [dmPLA12]
3. CCCCCCCCCCN1CCC[C@H]1C(=O)N[C@H](CC(=O)OC)C(=O)OC [dmPDA10]
4. CCCCCCCCCN1CCC[C@H]1C(=O)N[C@@H](CC(=O)OC)C(=O)OC [dmPLA9]

Outgoing:
32
16
64
256

* * *

# Test system: Microsporum canis
# Protocol Notes: MIC broth microdilution (CLSI)
# Experimental Parameters: Microsporum canis R-232
Please go through the items and note down their MIC / MEC.
Answers are plain numbers, in µg/mL.

Example results:
Compound	Target Or System	Recorded Measurement
CC(=O)N1CCN(c2ccc(OCC3COC(Cn4ccnc4)(c4ccc(Cl)cc4Cl)O3)cc2)CC1 (centres unmarked)	Microsporum canis	16
C[C@@H](c1ncncc1F)[C@](O)(Cn1cncn1)c1ccc(F)cc1F	Microsporum canis	0.03
C[C@@H]1[C@H](O)[C@@H](C)/C=C/C=C/C=C/C=C/C=C/C=C/C=C/[C@H](O[C@@H]2O[C@H](C)[C@@H](O)[C@H](N)[C@@H]2O)C[C@@H]2O[C@](O)(C[C@@H](O)C[C@@H](O)[C@H](O)CC[C@@H](O)C[C@@H](O)CC(=O)O[C@H]1C)C[C@H](O)[C@H]2C(=O)O	Microsporum canis	1

Answer for every listed entry: what is its MIC / MEC? The entries follow.
1. O=P(O)(O)C(O)(Cn1ccnc1)P(=O)(O)O [ZOL, zoledronate]
2. CCC(C)n1ncn(-c2ccc(N3CCN(c4ccc(OCC5COC(Cn6cncn6)(c6ccc(Cl)cc6Cl)O5)cc4)CC3)cc2)c1=O (centres unmarked)

Outgoing:
1: 64; 2: 0.5

List reported MIC / MEC for each of these compounds:
1. CC[C@H](C)C[C@H](C)CCCCCCCCC(=O)N[C@H]1C[C@@H](O)[C@@H](NCCN)NC(=O)[C@@H]2[C@@H](O)CCN2C(=O)[C@H]([C@H](O)CCN)NC(=O)[C@H]([C@H](O)[C@@H](O)c2ccc(O)cc2)NC(=O)[C@@H]2C[C@@H](O)CN2C(=O)[C@H]([C@@H](C)O)NC1=O
2. CCCCCCCCCCn1cc[n+](CC(O)(P(=O)(O)O)P(=O)(O)O)c1 [10-ZOL, Decyl-zoledronate]

Outgoing:
0.25
1

* * *

# Tested on: Trichophyton interdigitale
# Protocol Notes: MIC broth microdilution (CLSI)
# Format: cell-based
# Experimental Parameters: Trichophyton interdigitale R-234
Measurement Name: MIC / MEC (µg/mL)
Numbers only, in µg/mL.

For the 6 compounds below, give their MIC / MEC values.
1. C[C@@H](c1ncncc1F)[C@](O)(Cn1cncn1)c1ccc(F)cc1F
2. CCC(C)n1ncn(-c2ccc(N3CCN(c4ccc(OCC5COC(Cn6cncn6)(c6ccc(Cl)cc6Cl)O5)cc4)CC3)cc2)c1=O (centres unmarked)
3. CC(=O)N1CCN(c2ccc(OCC3COC(Cn4ccnc4)(c4ccc(Cl)cc4Cl)O3)cc2)CC1 (centres unmarked)
4. C[C@@H]1[C@H](O)[C@@H](C)/C=C/C=C/C=C/C=C/C=C/C=C/C=C/[C@H](O[C@@H]2O[C@H](C)[C@@H](O)[C@H](N)[C@@H]2O)C[C@@H]2O[C@](O)(C[C@@H](O)C[C@@H](O)[C@H](O)CC[C@@H](O)C[C@@H](O)CC(=O)O[C@H]1C)C[C@H](O)[C@H]2C(=O)O
5. O=P(O)(O)C(O)(Cn1ccnc1)P(=O)(O)O [ZOL, zoledronate]
6. CCCCCCCCCCn1cc[n+](CC(O)(P(=O)(O)O)P(=O)(O)O)c1 [10-ZOL, Decyl-zoledronate]

Outgoing:
1. 0.25
2. 1
3. 8
4. 0.5
5. 256
6. 1

Incoming: Entry CC[C@H](C)C[C@H](C)CCCCCCCCC(=O)N[C@H]1C[C@@H](O)[C@@H](NCCN)NC(=O)[C@@H]2[C@@H](O)CCN2C(=O)[C@H]([C@H](O)CCN)NC(=O)[C@H]([C@H](O)[C@@H](O)c2ccc(O)cc2)NC(=O)[C@@H]2C[C@@H](O)CN2C(=O)[C@H]([C@@H](C)O)NC1=O needs its MIC / MEC filled in; supply it.
Outgoing: 0.25
